System: hGBM1 precursors (WHO grade IV GBM)
Assay: Human glioblastoma precursor EC50 (hGBM1)
Type: cell-based
Details: Homo sapiens
# EC50 per record follows
Form entry: value (µM) — number only.

Example results:
Molecule: CN1CCc2cccc3c2[C@H]1Cc1ccc(O)c(O)c1-3 [(R)-(−)-Apomorphine (6), (R)-(−)-Apomorphine]
Property Label: EC50
Experimental Result: 14.6

Molecule: COc1cc([C@@H]2c3cc4c(cc3[C@@H](O[C@@H]3O[C@@H]5CO[C@@H](C)O[C@H]5[C@H](O)[C@H]3O)[C@H]3COC(=O)[C@H]23)OCO4)cc(OC)c1O [Etoposide (2), Etoposide]
Property Label: EC50
Experimental Result: 0.62

Molecule: CCN(CC)CCOCCOC(=O)C1(c2ccccc2)CCCC1
Property Label: EC50
Experimental Result: 5.44

Task: Consider the molecule COc1cc(CNC(=O)CCCCCCC(C)C)ccc1O [Dihydrocapsaicin (15), Dihydrocapsaicin] and give its measured EC50.
Result: 88.6

Task: Follow-up item: CC(C(O)c1ccc(O)cc1)N1CCC(Cc2ccccc2)CC1 (centres unmarked)
Result: 1.99

---

Tested on: murine neural precursor cells (neurosphere cultures)
Experiment: HTS of LOPAC library against secondary neurosphere cultures, MTT proliferation assay at 3 μM, day 7 (z score, P value)
Assay type: cell-based, mouse
Conditions: LOPAC primary screen, neurosphere MTT proliferation, 3 μM, day 7
Label Y for high-side Z score (at or above -0.1) and N for low-side Z score (below it).

Worked examples follow.
Compound: CC(C)C(=O)Nc1ccc([N+](=O)[O-])c(C(F)(F)F)c1 [Flutamide]
Tgt: murine neural precursor cells (neurosphere cultures)
Category: N

Compound: CCc1cc(Cl)c(OC)c(C(=O)NC[C@@H]2CCCN2CC)c1O.Cl [S-(−)-Eticlopride hydrohloride]
Tgt: murine neural precursor cells (neurosphere cultures)
Category: N

Task: Quick check: does N#CC(C#N)=C(N)/C(C#N)=C/c1ccc(O)cc1 have Z score greater than or equal to -0.1?
Result: Y

Task: Follow-up item: CCCCCCCCCCCCC/C=C/[C@@H](O)[C@@H](N)CO
Result: Y

Task: Follow-up item: CC(C(O)c1ccc(O)cc1)N1CCC(Cc2ccccc2)CC1 (centres unmarked)
Result: N

---

Test system: murine neural precursor cells (neurosphere cultures)
Assay: HTS of LOPAC library against secondary neurosphere cultures, MTT proliferation assay at 3 μM, day 7 (z score, P value)
Assay type: cell-based, mouse
Conditions: LOPAC library screen, 3 μM, MTT, neurosphere cultures
Property Label: Z Score
Form field (numeric): enter value without unit.

Example results:
Molecule: N[C@@H](Cc1c[nH]c2ccc(O)cc12)C(=O)O [5-Hydroxy-L-tryptophan]
Z Score: 0.03011
//
Molecule: N[C@@H](CS(=O)O)C(=O)O [L-Cysteinesulfinic Acid]
Z Score: 1.458
//
Molecule: CCCn1c(=O)c2[nH]c(-c3ccc(OCC(=O)NCCN)cc3)nc2n(CCC)c1=O [Xanthine amine congener]
Z Score: 0.001164
//
Molecule: O=C(O)Cc1ccccc1Nc1c(Cl)cccc1Cl [Diclofenac sodium]
Z Score: 0.2988
//
Molecule: COC(=O)[C@@H](N)Cc1ccc(O)c(O)c1.Cl
Z Score: 0.2769

Task: Consider the molecule CN1C(C(=O)Nc2ccccn2)=C(O)c2ccccc2S1(=O)=O [Piroxicam] and give its measured Z Score.
Result: 0.2527

Task: Follow-up item: CC1=C(C(=O)O)N2C(=O)[C@@H](NC(=O)[C@H](N)C3=CCC=CC3)[C@H]2SC1 [Cephradine]
Result: 0.7112

Task: Follow-up item: O=C(O)CCCCCCCC(=O)O [Azelaic acid]
Result: 0.1057

Task: Follow-up item: NC(=Nc1ccccc1)NC(=O)c1nc(Cl)c(N)nc1N [Phenamil methanesulfonate]
Result: 1.485

Task: Follow-up item: N=C(N)NCCCCN.O=S(=O)(O)O [Agmatine sulfate]
Result: 0.5881

---

Test system: murine neural precursor cells (neurosphere cultures)
Experiment: HTS of LOPAC library against secondary neurosphere cultures, MTT proliferation assay at 3 μM, day 7 (z score, P value)
Assay type: cell-based, mouse
Details: LOPAC library screen, 3 μM, MTT, neurosphere cultures
Where a name gives a salt, the structure may show the parent alone.
Categories are assigned from the measured Z Score using these intervals: low: < 0.1; mid: ≥ 0.1 and < 0.7; high: ≥ 0.7

Worked examples follow.
Compound: COc1ccc([C@@H]2Sc3ccccc3N(CCN(C)C)C(=O)[C@@H]2OC(C)=O)cc1 [Diltiazem hydrochloride]
Category: mid

Compound: [N-]=[N+]=Nc1ccc(C(=O)CSC[C@H](NC(=O)CC[C@H](N)C(=O)O)C(=O)NCC(=O)O)cc1 [S-(p-Azidophenacyl)glutathione]
Category: low

Compound: CC(NC(C)(C)C)C(=O)c1cccc(Cl)c1 (stereo not drawn) [Bupropion hydrochloride]
Category: mid

Task: Note: place this compound into its band. Item: O=C1CN(/N=C/c2ccc(-c3ccc([N+](=O)[O-])cc3)o2)C(O)=N1 [Dantrolene sodium]
Result: high

Task: Follow-up item: CN1CCc2cc(Cl)c(O)cc2[C@@H](c2ccccc2)C1.Cl [R(+)-SCH-23390 hydrochloride]
Result: high

Task: Follow-up item: O=C(O)CCc1nc(-c2ccccc2)c(-c2ccccc2)o1 [Oxaprozin]
Result: low

Task: Follow-up item: Cl.Cl.Cl.NCCCCNCCCN [Spermidine trihydrochloride]
Result: high

Task: Follow-up item: NC(N)=Nc1nc(CSCCC(N)=NS(N)(=O)=O)cs1 [Famotidine]
Result: low

Task: Follow-up item: CC(C)N(CCC(=O)c1ccc2ccccc2c1)Cc1ccccc1 [ZM 39923 hydrochloride]
Result: high

Task: Follow-up item: O=[N+]([O-])c1ccc(O[C@@H]2O[C@H](CO)[C@@H](O)[C@H](O)[C@H]2F)c([N+](=O)[O-])c1
Result: high

Task: Follow-up item: NC(=O)C1=CN([C@@H]2O[C@H](COP(=O)([O-])OP(=O)([O-])OC[C@H]3O[C@@H](n4cnc5c(N)ncnc54)[C@H](OP(=O)([O-])[O-])[C@@H]3O)[C@@H](O)[C@H]2O)C=CC1.[Na+].[Na+].[Na+].[Na+] [NADPH tetrasodium]
Result: mid

Task: Follow-up item: Oc1cccc2c(O)nccc12 [1,5-Isoquinolinediol]
Result: low

Task: Follow-up item: O=C1CCc2cc(OCCCCc3nnnn3C3CCCCC3)ccc2N1 [Cilostazol]
Result: high

Task: Follow-up item: C1CNCCN1.COc1cc(C(O)CO)ccc1O.COc1cc(C(O)CO)ccc1O (racemic) [MHPG piperazine]
Result: low

Task: Follow-up item: CCCCC1C(=O)N(c2ccccc2)N(c2ccccc2)C1=O [Phenylbutazone]
Result: high

Task: Follow-up item: CN1Cc2c(N)cccc2C(c2ccccc2)C1 (stereo not drawn) [Nomifensine maleate]
Result: mid

Task: Follow-up item: C[N+]1(C)[C@@H]2CC[C@H]1C[C@@H](OC(=O)C(CO)c1ccccc1)C2 (stereo partly drawn) [Atropine methyl nitrate]
Result: high

Task: Follow-up item: NCCS(=O)(=O)O [Taurine]
Result: mid

Task: Follow-up item: COc1cc2c(CCNC(C)=O)c[nH]c2cc1O [6-Hydroxymelatonin]
Result: mid

Task: Follow-up item: O=C1N=c2cc(Cl)c(Cl)cc2=NC1=O [6,7-Dichloroquinoxaline-2,3-dione]
Result: mid

Task: Follow-up item: CC(C)(C)c1ccc(C(O)CCCN2CCC(C(O)(c3ccccc3)c3ccccc3)CC2)cc1 (stereo not drawn) [Terfenadine]
Result: high

Task: Follow-up item: NC[C@@H]1O[C@H](O[C@H]2[C@@H](O)[C@H](O[C@@H]3[C@@H](O)[C@H](N)C[C@H](N)[C@H]3O[C@H]3O[C@H](CO)[C@@H](O)[C@H](O)[C@H]3N)O[C@@H]2CO)[C@H](N)[C@@H](O)[C@@H]1O [Paromomycin sulfate]
Result: high

Task: Follow-up item: Cn1c(=O)c2c(ncn2C)n(C)c1=O [Caffeine]
Result: mid

Task: Follow-up item: N=C(N)NC(=O)c1nc(Cl)c(N2CCCCCC2)nc1N [5-(N,N-hexamethylene)amiloride]
Result: low

Task: Follow-up item: COc1cccc(C(=O)NCCN2CCN(c3ccc(Cl)cc3)CC2)c1
Result: mid

Task: Follow-up item: COc1nc(C)nc(Cl)c1N=C1NCCN1 [Moxonidine hydrochloride]
Result: mid

Task: Follow-up item: CC[N+](C)(C)Cc1ccccc1Br [Bretylium tosylate]
Result: low

Task: Follow-up item: N#CC(C#N)=C(N)/C(C#N)=C/c1ccc(O)cc1 [Tyrphostin AG 112]
Result: mid

Task: Follow-up item: CN[C@H](CC(C)C)C(=O)N[C@H]1C(=O)N[C@@H](CC(N)=O)C(=O)N[C@H]2C(=O)N[C@H]3C(=O)N[C@H](C(=O)N[C@H](C(=O)O)c4cc(O)cc(O)c4-c4cc3ccc4O)[C@H](O)c3ccc(c(Cl)c3)Oc3cc2cc(c3O[C@@H]2O[C@H](CO)[C@@H](O)[C@H](O)[C@H]2O[C@H]2C[C@](C)(N)[C@H](O)[C@H](C)O2)Oc2ccc(cc2Cl)[C@H]1O.Cl
Result: low

Where these numbers come from: patent US8058243B2
